test system: rodent lifetime carcinogenesis bioassay, tumor incidence TD50; experiment: carcinogenic potency in animals, long-term in vivo studies, CPDB compilation (AID 1745844); details: mouse; strain B6C3F1; males; in feed; site: all sites; lesion: lymphoma and leukemia, combined; dosed 96 weeks; study length 104 weeks
Active and inactive are the calls of the source. How the calls were made is not given here.
Experimental readout: TD50

Recorded TD50 for "O" , please?
10700 mg/kg/day (inactive)

====

test system: rodent lifetime carcinogenesis bioassay, tumor incidence TD50; test: carcinogenic potency in animals, long-term in vivo studies, CPDB compilation (AID 1745844); details: rat; strain Sprague-Dawley; males; i.p.; site: brain + nasal cavity; lesion: neuroblastoma + olfactory neuroblastoma + carcinoma, NOS; dosed 32 weeks; study length 82 weeks
Experimental readout: TD50

Recorded TD50 for "S=P(N1CC1)(N1CC1)N1CC1" , please?
0.285 mg/kg/day
